System: SK-MEL-2
Assay: NCI tumour cell line growth inhibition, 48 h
Active and inactive are the calls of the source. Cut-off read from the data, not from the text of the source: active = GI50 up to about 1.1 µM and inactive = higher.
Reported GI50 by item:

{"MOLECULE": "CC(C)/C(Cl)=N/OC(=O)Nc1ccc(Cl)c(Cl)c1", "GI50": "18.4 µM (inactive)"}
{"MOLECULE": "Clc1ccc(-c2nn3c(COc4cccc(OCc5nnc6sc(-c7ccc(Cl)cc7)nn56)c4)nnc3s2)cc1", "GI50": "58.5 µM (inactive)"}
{"MOLECULE": "Cc1ccc(S(=O)(=O)NNS(C)(=O)=O)cc1", "GI50": "> 100 µM (inactive)"}
{"MOLECULE": "COCC1N=C(c2cc(OC)c(OC)c(OC)c2-c2cc3c(cc2[C@@H](C)O)OCO3)O[C@H]1c1ccccc1 (some centres undefined)", "GI50": "> 53.3 µM (inactive)"}
{"MOLECULE": "CC(C)(C)C(=O)OC(N)/C=C/c1ccccc1 (centres undefined)", "GI50": "> 100 µM (inactive)"}

Provide only the value of recorded GI50 for COC(=O)/C=C\n1nc(Br)c(=O)[nH]c1=O
> 100 µM (inactive)

Provide only the value of recorded GI50 for O=c1[nH]cnc2sc(=S)c3c(c12)CCC3
> 100 µM (inactive)

Provide only the value of recorded GI50 for COC(=O)c1c2c(cc3c1CC1(C3)Cc3cc4c(c(C(C)=O)c3C1)CCC4)C=CC2 (centres undefined)
> 31.6 µM (inactive)

Provide only the value of recorded GI50 for Cc1cc2c(=O)cc(-c3ccc(C(F)(F)F)cc3)oc2c(C(=O)O)c1C
> 100 µM (inactive)

Provide only the value of recorded GI50 for C[n+]1c2ccc(Cl)cc2nc2cc(-c3ccccc3)ccc21
19.8 µM (inactive)

Provide only the value of recorded GI50 for O=C(O)c1cc(CC2Cc3cc4c(cc3C2=O)CCC4)cc2c1CCC2 (centres undefined)
> 100 µM (inactive)

Provide only the value of recorded GI50 for CC(C)C(=O)N1C(=O)O[C@@H](c2ccccc2)[C@H]1C
> 100 µM (inactive)

====

Tested on: OVCAR-8
Assay: NCI tumour cell line growth inhibition, 48 h
Activity calls are given as the source filed them. Cut-off read from the data, not from the text of the source: active = GI50 up to about 1.1 µM and inactive = higher.
READOUT TYPE: GI50

Take a look at these entries with their results.
{"MOLECULE": "CCOc1cc2oc(C)cc(=O)c2c(OC)c1/C=N/c1ccc(Cn2c(C)nc3ccccc32)cc1", "SYSTEM": "OVCAR-8", "GI50": "> 100 µM (inactive)"}
{"MOLECULE": "Cc1cc(N(CCC#N)CCC#N)ccc1C(/N=N/c1ccc(Cl)cc1)=N\\NC(=O)c1cc(Cl)ccc1O", "SYSTEM": "OVCAR-8", "GI50": "35.6 µM (inactive)"}
{"MOLECULE": "Cc1cccc(-c2nnc(S)[nH]2)c1", "SYSTEM": "OVCAR-8", "GI50": "> 100 µM (inactive)"}
{"MOLECULE": "CC(c1ccccc1)N1CC(C)(c2ccccc2)N(O)C(c2ccccc2)C1C (centres undefined)", "SYSTEM": "OVCAR-8", "GI50": "9.91 µM (inactive)"}
{"MOLECULE": "CC(O)CCCCC(O)CCC[C@H](O)[C@H]1CCC([C@H]2CCC([C@@H](O)CCCCCCCCCCCCC3=C[C@H](C)OC3=O)O2)O1 (some centres undefined)", "SYSTEM": "OVCAR-8", "GI50": "10.1 µM (inactive)"}

Provide only the value of recorded GI50 for CO[C@H]1C[C@H](n2cc(C)c(=O)[nH]c2=O)O[C@@H]1CO
> 100 µM (inactive)

Provide only the value of recorded GI50 for CC(C)(C)OC/C=C(\Br)CO
> 100 µM (inactive)

Provide only the value of recorded GI50 for O=C(/C=C(\S/C=C(/c1ccccc1)N1CCn2c(C(=O)c3ccccc3)c(C(=O)c3ccccc3)c(C(=O)c3ccccc3)c21)C(=O)c1ccccc1)c1ccccc1
> 10 µM (inactive)

Provide only the value of recorded GI50 for CC(=O)NC1=C(C)C(=O)c2c(nc3n2CCC3OC(=O)CCl)C1=O (centres undefined)
4.1 µM (inactive)

====

Tested on: OVCAR-8
Experiment: NCI tumour cell line growth inhibition, 48 h
Calls of active or inactive are those of the source. Cut-off read from the data, not from the text of the source: active = GI50 up to about 1.1 µM and inactive = higher.
Answer with one of the outcomes given here: Yes for active, No for inactive

See these solved cases before continuing.
{"COMPOUND": "COC(=O)C1CC(=O)O[C@H]1c1ccc(OC)c(OC)c1 (stereo partly specified)", "SYSTEM": "OVCAR-8", "LABEL": "No"}
{"COMPOUND": "CCOC(=O)C1(C)CCCc2sc(N)c(C#N)c21 (stereo unspecified)", "SYSTEM": "OVCAR-8", "LABEL": "No"}
{"COMPOUND": "C[Si](C)(C)C#CCO[Si](C)(C)C", "SYSTEM": "OVCAR-8", "LABEL": "No"}
{"COMPOUND": "CN(C)CCNC(=O)c1ccc(Cl)c2ccc(-c3ccccc3)nc12", "SYSTEM": "OVCAR-8", "LABEL": "No"}
{"COMPOUND": "CC(C)(C)COS(=O)OCC(C)(C)C", "SYSTEM": "OVCAR-8", "LABEL": "No"}
{"COMPOUND": "COC(=O)c1c2c(cc3c1CC1(C3)Cc3cc4c(c(C(C)=O)c3C1)CCC4)C=CC2 (stereo unspecified)", "SYSTEM": "OVCAR-8", "LABEL": "No"}

Hi team, can someone confirm the assay call for O=C(O)C1CCCCN1CCc1c[nH]c2ccccc12 (stereo unspecified) ?
No

Hi team, can someone confirm the assay call for O=C1/C(=C/c2ccc([N+](=O)[O-])cc2)Oc2cc(O)ccc21 ?
No

Hi team, can someone confirm the assay call for C[n+]1c2ccccc2n2c3ccccc3c(NCc3ccco3)c(C#N)c21 ?
No

Hi team, can someone confirm the assay call for CN(C)CCCN1c2ccccc2Sc2ccc3ccccc3c21 ?
No

Hi team, can someone confirm the assay call for O=c1[nH]c2c(nc1NC13CC4CC(CC(C4)C1)C3)c(=O)oc1ccccc12 ?
No

====

Tested on: EKVX
Experiment: NCI tumour cell line growth inhibition, 48 h
The source made the active and inactive calls. Rule as the data show it: active = GI50 up to about 1.1 µM and inactive = higher.
READOUT TYPE: GI50

{"MOLECULE": "Clc1ccc2c(NCCCC/N=C/c3ccccc3)ccnc2c1", "SYSTEM": "EKVX", "RESULT": "15.5 µM (inactive)"}

Provide only the value of recorded GI50 for O=C1/C(=C/c2ccc([N+](=O)[O-])cc2)Oc2cc(O)ccc21
33.7 µM (inactive)

Provide only the value of recorded GI50 for CC#CC(=O)Nc1ccccc1CC(c1c[nH]c2ccccc12)c1c[nH]c2ccccc12
14.6 µM (inactive)

Provide only the value of recorded GI50 for CCOCc1cc(=O)c2c(O)cc3c(c2o1)CCC(C)(C)O3
> 100 µM (inactive)

Provide only the value of recorded GI50 for O=C(ON=c1c2ccccc2ccc2ccccc12)c1ccccc1
35.7 µM (inactive)

Provide only the value of recorded GI50 for COc1ccc(CNc2nc(NCc3ccc(OC)c(OC)c3)nc(NC3CCCCC3)n2)cc1
10.4 µM (inactive)

Provide only the value of recorded GI50 for O=[S@@]1Nc2ccc(Br)cc2S1
41.6 µM (inactive)

Provide only the value of recorded GI50 for CCN(CC)c1ccc(/C=C/C(=O)c2cc(C(C)(C)C)c(O)c(C(C)(C)C)c2)cc1
4.13 µM (inactive)

Provide only the value of recorded GI50 for Nc1c(S(=O)(=O)c2ccccc2)c2nc3ccccc3nc2n2c1nc1ccccc12
> 68.5 µM (inactive)

Provide only the value of recorded GI50 for COc1ccccc1-n1cnc2c1=NC(C)(C)NC=2C(N)=O
> 100 µM (inactive)

Provide only the value of recorded GI50 for COc1ccc(CC2Cc3ccccc3CC(=O)N2)cc1OC (stereo unspecified)
89.7 µM (inactive)

====

Test system: BT-549
Test: NCI tumour cell line growth inhibition, 48 h
Activity calls are given as the source filed them. No stated cut-off is given here; in the data, active = GI50 up to about 1.1 µM and inactive = higher.
Answer with one of the outcomes given here: 1 (active), 0 (inactive)

{"COMPOUND": "CC(=O)N(C(=O)CC(=O)N1N=C(C)C(/N=N/c2cccc([N+](=O)[O-])c2)C1=O)c1ccc(Cl)cc1 (stereo not given)", "LABEL": 0}

Hi team, can someone confirm the assay call for COc1cc2c(cc1OCCCCCOc1cc3c(cc1OC)C(=O)N1CCC[C@H]1C(=O)N3)N=C[C@@H]1CCCN1C2=O ?
1

Hi team, can someone confirm the assay call for c1ccc(-c2sc(-c3ccccc3)c3c2C2CCC3C2)cc1 ?
0

Hi team, can someone confirm the assay call for CN(CCc1ccccn1)c1ccc2c(c1)C(=O)c1ccccc1-2 ?
0

====

Reported GI50 by item:
Tested on: LOX IMVI
Test: NCI tumour cell line growth inhibition, 48 h
Active and inactive are the calls of the source. Rule as the data show it: active = GI50 up to about 1.1 µM and inactive = higher.

{"COMPOUND": "CN(C)C(=O)C(F)(F)C(c1ccccc1Br)C1C(=O)N(C)C(=O)N(C)C1=O (stereo not given)", "GI50": "> 100 µM (inactive)"}
{"COMPOUND": "O=C(Nc1ccc(F)cc1)C(=O)C(C(=O)c1ccccc1F)C1OC(=O)c2ccccc21 (stereo not given)", "GI50": "35.6 µM (inactive)"}

Provide only the value of recorded GI50 for OC(c1ccsc1)c1cc2ccccc2s1 (stereo not given)
> 10 µM (inactive)

Provide only the value of recorded GI50 for CC(=O)N(C(=O)CC(=O)N1N=C(C)C(/N=N/c2cccc([N+](=O)[O-])c2)C1=O)c1ccc(Cl)cc1 (stereo not given)
> 10 µM (inactive)

Provide only the value of recorded GI50 for CC(C)(C)c1nc2c(o1)C(=O)c1ccccc1C2=O
0.394 µM (active)

Provide only the value of recorded GI50 for O=c1cnc2cc3ccccc3cc2[nH]1
> 100 µM (inactive)

Provide only the value of recorded GI50 for COC(=O)C(=O)C(C(=O)C(=O)Nc1ccccc1C(=O)OC)c1nc2ccc(C(=O)c3ccccc3)cc2nc1O (stereo not given)
87.3 µM (inactive)

Provide only the value of recorded GI50 for CC(C)C(=O)/C=C/S/C=C/C(=O)C(C)C
3.31 µM (inactive)

Provide only the value of recorded GI50 for COC(=O)C(=O)C(C(=O)C(=O)Nc1cccc(C(C)=O)c1)c1nc2ccccc2nc1O (stereo not given)
> 100 µM (inactive)

Provide only the value of recorded GI50 for C[Si](C)(C)C#CCO[Si](C)(C)C
7.03 µM (inactive)
